system: 8-day Krocker sarcoma (S-180); details: dose 250 mg/kg, intravenous, tumor volume or weight after 4-5 days
QUANTITY_KIND: Inhibition of the tumor growth, % of the control

{"columns": ["COMPOUND", "TESTED_ON", "REPORTED_MEASUREMENT"],
 "data": [
  ["CC(=O)N[C@H]1C(O[C@H]2[C@H](O[C@H](C)C(=O)O)[C@@H](NC(C)=O)C(O)O[C@@H]2CO)O[C@H](CO)[C@@H](O)[C@@H]1O (stereo partly shown) [VIII]", "8-day Krocker sarcoma (S-180)", "0 % of the control"],
  ["CC(=O)N[C@H]1C(O)O[C@H](CO)[C@@H](O)[C@@H]1O[C@H](C)C(=O)O (stereo partly shown) [VII, N-acetylmuramic acid]", "8-day Krocker sarcoma (S-180)", "52 % of the control"],
  ["CC(=O)N[C@H]1C(O[C@H]2[C@H](O[C@H](C)C(=O)O)[C@@H](NC(C)=O)C(O[C@H]3[C@H](O)[C@@H](NC(C)=O)C(O[C@H]4[C@H](O[C@H](C)C(=O)O)[C@@H](NC(C)=O)C(O)O[C@@H]4CO)O[C@@H]3CO)O[C@@H]2CO)O[C@H](CO)[C@@H](O)[C@@H]1O (stereo partly shown) [IX]", "8-day Krocker sarcoma (S-180)", "0 % of the control"],
  ["CC(=O)N[C@H]1C(O)O[C@H](CO)[C@@H](O)[C@@H]1O (stereo partly shown) [VI, N-acetylglucosamine]", "8-day Krocker sarcoma (S-180)", "0 % of the control"]
]}
